IC50 values, listed per item
- target_or_test_system: 5-hydroxytryptamine receptor 6 (Homo sapiens, UniProt P50406)
- Sequence (P50406 whole entry): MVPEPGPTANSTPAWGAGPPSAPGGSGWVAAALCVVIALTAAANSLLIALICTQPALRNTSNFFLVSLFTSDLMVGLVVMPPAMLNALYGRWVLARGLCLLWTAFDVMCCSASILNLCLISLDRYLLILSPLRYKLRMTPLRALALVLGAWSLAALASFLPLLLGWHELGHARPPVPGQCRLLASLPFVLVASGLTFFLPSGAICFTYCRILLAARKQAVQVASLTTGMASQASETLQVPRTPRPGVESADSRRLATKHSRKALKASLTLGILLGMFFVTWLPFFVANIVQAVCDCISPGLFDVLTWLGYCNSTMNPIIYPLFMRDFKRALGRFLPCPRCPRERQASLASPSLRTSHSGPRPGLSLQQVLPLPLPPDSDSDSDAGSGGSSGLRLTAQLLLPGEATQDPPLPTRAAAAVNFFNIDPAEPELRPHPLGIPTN
- assay_info: Displacement of [3H]LSD from human 5HT6 receptor expressed in HEK293 cells
Answer as a quantity: numeral, then unit.

Query: Look up IC50: CN1CCN(c2cccc(NS(=O)(=O)c3ccc4ccccc4c3)c2)CC1
Response: 13 nM

Query: Look up IC50: CCCN(c1cccc(N2CCN(C)CC2)c1)S(=O)(=O)c1ccc2ccccc2c1
Response: 4 nM

Query: Look up IC50: CN1CCN(c2cccc(N(C)S(=O)(=O)c3ccc4ccccc4c3)c2)CC1
Response: 7 nM

----------
- target_or_test_system: 5-hydroxytryptamine receptor 2A (Homo sapiens)
- Sequence (P28223 whole entry): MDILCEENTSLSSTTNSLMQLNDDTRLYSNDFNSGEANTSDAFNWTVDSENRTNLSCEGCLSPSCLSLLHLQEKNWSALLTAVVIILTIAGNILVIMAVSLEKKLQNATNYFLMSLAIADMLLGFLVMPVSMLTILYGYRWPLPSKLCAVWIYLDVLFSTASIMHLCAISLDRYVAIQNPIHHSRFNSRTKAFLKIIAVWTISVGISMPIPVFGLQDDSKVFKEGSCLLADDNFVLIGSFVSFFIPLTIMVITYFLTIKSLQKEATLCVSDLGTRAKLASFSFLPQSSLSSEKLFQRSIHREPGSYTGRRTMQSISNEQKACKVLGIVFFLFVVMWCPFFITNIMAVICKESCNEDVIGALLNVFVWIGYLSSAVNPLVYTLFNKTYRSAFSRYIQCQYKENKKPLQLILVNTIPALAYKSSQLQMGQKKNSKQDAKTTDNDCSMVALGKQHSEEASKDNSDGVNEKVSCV
- assay_info: Displacement of [3H]ketanserin from human 5HT2A expressed in CHOKI cells
assay_readout: IC50 (nM)
Kindly answer with a numeric value in nM, unit omitted.

Example results:
| mol_smiles | measurement_unit | IC50 |
| --- | --- | --- |
| CCN(c1cccc(N2CCN(C)CC2)c1)S(=O)(=O)c1ccc2ccccc2c1 | nM | 218 |
| CC(C)N(c1cccc(N2CCN(C)CC2)c1)S(=O)(=O)c1ccccc1 | nM | 172 |
| CN1CCN(c2cccc(N(C)S(=O)(=O)c3ccc4ccccc4c3)c2)CC1 | nM | 1420 |

# next molecule below
Query: Give IC50 (5-hydroxytryptamine receptor 2A (Homo sapiens)) of the following molecule: CN1CCN(c2cccc(NS(=O)(=O)c3ccc4ccccc4c3)c2)CC1
Response: 1620

----------
- target_or_test_system: UniProt P21917
- assay_info: Displacement of [3H]spiperone from human dopamine D4 receptor expressed in CHOKI cells
assay_readout: IC50

Example results:
| mol_smiles | assay_readout | test_result |
| --- | --- | --- |
| CCCN(c1cccc(N2CCN(C)CC2)c1)S(=O)(=O)c1ccc2ccccc2c1 | IC50 | > 10 µM |
| CN1CCN(c2cccc(N(CC3CC3)S(=O)(=O)c3ccc4ccccc4c3)c2)CC1 | IC50 | > 10 µM |
| CC(C)N(c1cccc(N2CCN(C)CC2)c1)S(=O)(=O)c1cccc2ccccc12 | IC50 | > 10 µM |
| CC(C)N(c1cccc(N2CCN(C)CC2)c1)S(=O)(=O)c1ccc2ccccc2c1 | IC50 | > 1 µM |

Query: Look up IC50: CC(C)N(c1cccc(N2CCN(C)CC2)c1)S(=O)(=O)c1ccccc1
Response: > 10 µM

----------
- target_or_test_system: 5-hydroxytryptamine receptor 2C (Homo sapiens)
- Sequence (P28335 whole entry): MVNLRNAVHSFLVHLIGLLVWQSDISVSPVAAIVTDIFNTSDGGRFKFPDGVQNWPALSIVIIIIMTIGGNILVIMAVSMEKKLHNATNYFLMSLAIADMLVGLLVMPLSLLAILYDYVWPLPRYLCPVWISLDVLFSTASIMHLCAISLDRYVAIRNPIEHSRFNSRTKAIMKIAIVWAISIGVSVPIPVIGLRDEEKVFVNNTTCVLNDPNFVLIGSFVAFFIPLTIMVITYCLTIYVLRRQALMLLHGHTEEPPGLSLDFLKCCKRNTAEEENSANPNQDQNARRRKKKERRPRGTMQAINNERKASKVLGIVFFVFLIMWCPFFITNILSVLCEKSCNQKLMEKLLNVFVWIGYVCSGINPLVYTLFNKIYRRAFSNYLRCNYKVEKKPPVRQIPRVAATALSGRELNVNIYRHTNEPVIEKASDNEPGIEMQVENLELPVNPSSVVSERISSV
- assay_info: Displacement of [3H]mesulergine from human 5HT2C expressed in CHOKI cells
- Type: cell-based
assay_readout: log10(IC50) (log10 of the value in nM)
Each number you see is log10 of IC50, and the unit inside the log is nM.

Example results:
| molecule | target_or_test_system | log10(IC50) |
| --- | --- | --- |
| CC(C)N(c1cccc(N2CCN(C)CC2)c1)S(=O)(=O)c1ccccc1 | 5-hydroxytryptamine receptor 2C (Homo sapiens) | 1.32 |
| CC(C)N(C(=O)c1ccccc1)c1cccc(N2CCN(C)CC2)c1 | 5-hydroxytryptamine receptor 2C (Homo sapiens) | 3.62 |
| CN1CCN(c2cccc(N(Cc3ccccc3)S(=O)(=O)c3ccc4ccccc4c3)c2)CC1 | 5-hydroxytryptamine receptor 2C (Homo sapiens) | 1.51 |
| CC(C)N(c1cccc(I)c1)S(=O)(=O)c1ccc2ccccc2c1 | 5-hydroxytryptamine receptor 2C (Homo sapiens) | 2.67 |
| CC(C)N(c1cccc(N2CCN(C)CC2)c1)S(=O)(=O)c1ccc([N+](=O)[O-])cc1 | 5-hydroxytryptamine receptor 2C (Homo sapiens) | 2.66 |

Query: Look up log10(IC50): CC(C)N(C(=O)c1ccc2ccccc2c1)c1cccc(N2CCN(C)CC2)c1
Response: 2.62

Query: Look up log10(IC50): CC(C)N(c1cccc(N2CCN(C)CC2)c1)S(=O)(=O)c1cccc2ccccc12
Response: 2.00

Query: Look up log10(IC50): CC(C)N(c1ccc(N2CCN(C)CC2)cc1)S(=O)(=O)c1ccc2ccccc2c1
Response: 3.24

Query: Look up log10(IC50): CC(C)N(c1cccc(N2CCN(C)CC2)c1)S(=O)(=O)c1ccc2ccccc2c1
Response: 0.60

Query: Look up log10(IC50): CC(C)N(C(=O)c1cccc2ccccc12)c1cccc(N2CCN(C)CC2)c1
Response: 1.99

----------
- target_or_test_system: 5-hydroxytryptamine receptor 7 (Homo sapiens, UniProt P34969)
- Sequence (P34969 whole entry): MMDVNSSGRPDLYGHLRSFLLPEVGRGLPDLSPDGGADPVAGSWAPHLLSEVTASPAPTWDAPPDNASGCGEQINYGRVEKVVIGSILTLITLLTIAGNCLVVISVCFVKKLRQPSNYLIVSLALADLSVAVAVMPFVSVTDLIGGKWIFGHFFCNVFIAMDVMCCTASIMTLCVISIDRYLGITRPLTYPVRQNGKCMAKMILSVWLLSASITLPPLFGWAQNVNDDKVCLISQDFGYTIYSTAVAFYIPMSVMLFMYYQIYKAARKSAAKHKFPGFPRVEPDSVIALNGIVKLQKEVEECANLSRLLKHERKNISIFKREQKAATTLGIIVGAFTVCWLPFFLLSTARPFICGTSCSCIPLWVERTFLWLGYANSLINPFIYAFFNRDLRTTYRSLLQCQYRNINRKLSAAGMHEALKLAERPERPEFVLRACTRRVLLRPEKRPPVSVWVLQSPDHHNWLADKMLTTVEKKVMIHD
- assay_info: Displacement of [3H]LSD from human 5HT7 expressed in CHOKI cells
assay_readout: IC50

Example results:
| mol_smiles | test_result |
| --- | --- |
| CN1CCN(c2cccc(N(C)S(=O)(=O)c3ccc4ccccc4c3)c2)CC1 | 4430 nM |
| CCCN(c1cccc(N2CCN(C)CC2)c1)S(=O)(=O)c1ccc2ccccc2c1 | 3860 nM |
| CC(C)N(c1cccc(N2CCN(C)CC2)c1)S(=O)(=O)c1cccc2ccccc12 | 2870 nM |
| CC(C)N(c1cccc(N2CCN(C)CC2)c1)S(=O)(=O)c1ccccc1 | 1010 nM |
| CN1CCN(c2cccc(N(Cc3ccccc3)S(=O)(=O)c3ccc4ccccc4c3)c2)CC1 | 2040 nM |

Query: Look up IC50: CCN(c1cccc(N2CCN(C)CC2)c1)S(=O)(=O)c1ccc2ccccc2c1
Response: 2060 nM

Query: Look up IC50: CN1CCN(c2cccc(N(CC3CC3)S(=O)(=O)c3ccc4ccccc4c3)c2)CC1
Response: 3040 nM

Query: Look up IC50: CN1CCN(c2cccc(NS(=O)(=O)c3ccc4ccccc4c3)c2)CC1
Response: 1580 nM

----------
- target_or_test_system: D(4) dopamine receptor (Homo sapiens, UniProt P21917)
- Sequence (P21917 whole entry): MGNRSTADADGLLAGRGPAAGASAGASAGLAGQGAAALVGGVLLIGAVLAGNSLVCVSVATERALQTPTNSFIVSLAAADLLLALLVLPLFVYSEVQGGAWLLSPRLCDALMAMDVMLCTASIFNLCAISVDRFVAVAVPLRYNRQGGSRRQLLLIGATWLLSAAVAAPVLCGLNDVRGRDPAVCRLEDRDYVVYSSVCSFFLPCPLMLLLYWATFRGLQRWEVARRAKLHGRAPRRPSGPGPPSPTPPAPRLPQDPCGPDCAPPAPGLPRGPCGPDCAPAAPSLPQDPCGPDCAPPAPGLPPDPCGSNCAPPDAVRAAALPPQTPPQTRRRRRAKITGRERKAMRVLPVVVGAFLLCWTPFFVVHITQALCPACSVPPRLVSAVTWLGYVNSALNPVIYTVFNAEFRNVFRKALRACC
- assay_info: Displacement of [3H]spiperone from human dopamine D4 receptor expressed in CHOKI cells
IC50 values, listed per item

Example results:
| mol_smiles | test_result |
| --- | --- |
| CN1CCN(c2cccc(N(Cc3ccccc3)S(=O)(=O)c3ccc4ccccc4c3)c2)CC1 | > 10 µM |
| CN1CCN(c2cccc(NS(=O)(=O)c3ccc4ccccc4c3)c2)CC1 | > 10 µM |
| CCN(c1cccc(N2CCN(C)CC2)c1)S(=O)(=O)c1ccc2ccccc2c1 | > 10 µM |

# next molecule below
Query: Look up IC50: CN1CCN(c2cccc(N(C)S(=O)(=O)c3ccc4ccccc4c3)c2)CC1
Response: > 10 µM

----------
- target_or_test_system: 5-hydroxytryptamine receptor 1A (Homo sapiens, UniProt P08908)
- Sequence (P08908 whole entry): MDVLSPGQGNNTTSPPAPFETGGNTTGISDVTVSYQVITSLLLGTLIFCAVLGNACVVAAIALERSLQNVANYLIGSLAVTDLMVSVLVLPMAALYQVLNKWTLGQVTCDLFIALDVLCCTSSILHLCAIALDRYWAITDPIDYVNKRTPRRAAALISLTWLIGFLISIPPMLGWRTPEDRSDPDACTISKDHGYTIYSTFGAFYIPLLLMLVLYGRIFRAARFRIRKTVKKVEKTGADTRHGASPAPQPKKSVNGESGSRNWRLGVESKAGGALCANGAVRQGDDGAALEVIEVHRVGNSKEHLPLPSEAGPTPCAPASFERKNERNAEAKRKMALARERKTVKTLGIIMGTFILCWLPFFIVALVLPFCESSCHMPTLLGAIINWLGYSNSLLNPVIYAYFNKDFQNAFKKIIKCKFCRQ
- assay_info: Displacement of [3H]8-OH-DPAT from human 5HT1A expressed in CHOKI cells
- Format: cell-based
Quick rule for you: IC50 under 300 nM gets fulfilled, anything else gets not fulfilled.

Take a look at these entries with their results.
| mol_smiles | group |
| --- | --- |
| CN1CCN(c2cccc(N(CC3CC3)S(=O)(=O)c3ccc4ccccc4c3)c2)CC1 | not fulfilled |
| CN1CCN(c2cccc(NS(=O)(=O)c3ccc4ccccc4c3)c2)CC1 | fulfilled |
| CCCN(c1cccc(N2CCN(C)CC2)c1)S(=O)(=O)c1ccc2ccccc2c1 | not fulfilled |
| CN1CCN(c2cccc(N(C)S(=O)(=O)c3ccc4ccccc4c3)c2)CC1 | fulfilled |
| CC(C)N(c1cccc(N2CCN(C)CC2)c1)S(=O)(=O)c1ccc2ccccc2c1 | not fulfilled |
| CCN(c1cccc(N2CCN(C)CC2)c1)S(=O)(=O)c1ccc2ccccc2c1 | not fulfilled |
| CC(C)N(c1cccc(N2CCN(C)CC2)c1)S(=O)(=O)c1ccccc1 | not fulfilled |

API: the following record is the query input.
Query: Quick check: does CN1CCN(c2cccc(N(Cc3ccccc3)S(=O)(=O)c3ccc4ccccc4c3)c2)CC1 have IC50 under 300 nM?
Response: fulfilled

This collection of values is drawn from ChEMBL document CHEMBL1221248.
